# TARGET: T1, Inhibin A (Homo sapiens (Human), UniProt P05111 233-366; P08476 311-426)
# T1 sequence 1: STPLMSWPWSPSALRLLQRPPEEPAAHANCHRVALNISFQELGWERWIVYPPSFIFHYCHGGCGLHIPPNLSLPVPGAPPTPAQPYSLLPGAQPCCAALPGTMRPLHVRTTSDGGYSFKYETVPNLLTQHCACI
# T1 sequence 2: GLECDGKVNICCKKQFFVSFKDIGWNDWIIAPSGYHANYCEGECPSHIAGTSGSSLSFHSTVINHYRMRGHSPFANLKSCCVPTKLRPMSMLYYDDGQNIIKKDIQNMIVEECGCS
# TEST METHOD NOTES: ELISA, coated antigen, OD450
MEASUREMENT NAME: fold-change of OD 450 over negative control (BSA) (fold)
Give the value in fold but do not write fold after it.

Example entries and their recorded answers appear below.
BINDER	NUMBER
AB347 (antibody, IgG1, V domains shown) VH: QVQLQESGPGLVKPSQTLSLTCTVSGFPLSTSRMGVNWIRQPPGKGLEWIGYINPSGATDYNPSLKSRVTMSVDTSKNQFSLKVNSVTAADTAVYYCARAGYPDVWGKGTTVTVSS VL: EIVMTQSPATLSLSPGERATLSCRASQNIGHSLAWYQQKPGQAPRLLIYGASIRAPGIPARFSGSGSGTDFTLTISSLEPEDFAVYYCQQYITWPSTFGGGTKVEIK	0.74
AB349 (antibody, IgG1, V domains shown) VH: QVQLQESGPGLVKPSQTLSLTCTVSGVSLSNARLGVNWIRQPPGKGLEWIGYGSVTGSTDYNPSLKSRVTMSVDTSKNQFSLKVNSVTAADTAVYYCTTSYLVDTAMVTRWGQGTLVTVSS VL: EIVMTQSPATLSLSPGERATLSCRASQRIGSDLAWYQQKPGQAPRLLIYSASSRAPGIPARFSGSGSGTDFTLTISSLEPEDFAVYYCSTMAIPFGGGTKVEIK	0.22

Let us examine a further case.
Identify the reported fold-change of OD 450 over negative control (BSA) for the following entry. AB852 (antibody, IgG1, V domains shown) VH: QVTLRESGPALVKPTQTLTLTCTVSGFSLSDTRWGVNWIRQPPGKALEWIGYINDRGTTDYNSALKSRLTISKDTSKNQVVLTMTNMDPVDTATYYCAHTLHTREFVGMDVWGQGTTVTVSS VL: DIVMTQSPDSLAVSLGERATINCKSSQSVLDTSTNRNYLAWYQQKPGQPPKLLIYGASIRAGGVPDRFSGSGSGTDFTLTISSLQAEDVAVYYCQQYETWPWTFGGGTKVEIK
0.94

Source: patent US20250270304A1
